FYI, the data here is from PubChem BioAssay (NCI).

Tested on: ACHN renal
Test: NCI tumour cell line growth inhibition, 48 h
QUANTITY_KIND: TGI

> print(dat)
                                    molecule  quantity.kind  observed.measurement
 1  CC(CO)(CO)NCCCCn1ccc2c1C(=O)c1c(c(O)c3ccccc3c1O)C2=O            TGI              > 100 µM
 2    CCC/C(Cl)=N\OC(=O)Nc1ccc(OC(F)(F)F)cc1            TGI               4.41 µM
 3              On1c(-c2ccccc2)nc2ccccc2c1=S            TGI              > 100 µM
 4  COc1ccc(/C=C/C(=O)C(CC2CCC2)C(=O)/C=C/c2ccc(OC)c(OC)c2)cc1OC            TGI               2.95 µM
 5  O=C1C(=Cc2ccccc2O)N=C(c2ccccc2)N1n1c(-c2ccccc2)nc2ccccc2c1=O            TGI               89.3 µM
 6  O=C1CC2CCCC23CC2(CCN13)OCCO2 (stereo unspecified)            TGI              > 100 µM
 7          COc1cccc(/C=N/n2c(C)n[nH]c2=O)c1            TGI              > 100 µM
 8  CSc1cnc2ccccc2c1SC1CN(Cc2ccccc2)c2ccccc2C1=O (stereo unspecified)            TGI              > 100 µM
 9  CN(CCC#N)c1ccc(/C=C(\C#N)c2ccc(Br)cc2)cc1            TGI              > 100 µM
10    N#CC1CC2(C1)OCCS2 (stereo unspecified)            TGI              > 100 µM
11  COc1cc2c3c(c1OC)C1(C=CC(=O)C=C1)C[C@H]3N(C)CC2            TGI              > 100 µM
